System: BT-549 breast
Experiment: NCI-60 one-dose screen, 48 h (100 = growth as untreated, 0 = no growth, -100 = all killed)
Conditions: 10 µM
About 83,000 compounds went through this panel and 20% of them were active in at least one assay; those are over-represented in the sample as a whole.
parameter: growth (%)
Supply the numeric figure in %, leaving out any unit text.

molecule "CC(C)=CC(=O)OC(=O)C=C(C)C" , growth observed: 105

molecule "O=C(Nc1ccccc1C(=O)NCC1CC1)c1cccs1" , growth observed: 99.9

molecule "CCN=c1cc2sc3cc(NCC)c(C)cc3nc-2cc1C" , growth observed: 36.4

molecule "CC(C)CCCC(=O)O" , growth observed: 108

molecule "Cc1c(C(=O)O)c(=O)n(-c2ccccc2)n1C" , growth observed: 114

molecule NC(CSC(c1ccccc1)(c1ccccc1)c1ccccc1)C(=O)O (stereo not drawn) , growth observed: 47.4

molecule "O=c1cc(-c2ccccc2)nc2cc(-c3ccco3)[nH]n12" , growth observed: 98.3

molecule "Cc1ccc(Cl)cc1NC(=O)N(C)CCO" , growth observed: 116

molecule "O=C(Nc1cc(-c2ccccc2)[nH]n1)c1ccc(Cl)cc1" , growth observed: 83.5

molecule CC1(C(=O)O)NC(C(=O)O)Cc2c1[nH]c1ccccc21 (stereo not drawn) , growth observed: 119

molecule "Nc1ccc(NC(=O)c2cccc(N)c2)cc1" , growth observed: 93.3

molecule "COC(=O)c1ccc(C(C)C)cc1" , growth observed: 85.6

molecule "N#CSc1cc(S(N)(=O)=O)ccc1N" , growth observed: 98.6

molecule "O=C1c2ccccc2C(=O)N1OCc1ccccc1" , growth observed: 118

molecule O=C(O)C(O)c1ccccc1 (stereo not drawn) , growth observed: 97.1

molecule "CC(=O)c1ccc(N=C(C#N)C2=C(O)c3ccccc3C2=O)cc1" , growth observed: 98.3

molecule "CCOC(=O)c1cc2cccc(OC)c2oc1=O" , growth observed: 88.6

molecule "O=C(O)COCC(=O)O" , growth observed: 122

molecule "CC(=O)Cc1cc(-c2cc(CC(C)=O)[nH]n2)n[nH]1" , growth observed: 88.4

molecule "O=[N+]([O-])c1cccc(C(F)(F)F)c1" , growth observed: 103

molecule CC1CC(O)CC(C)(C)C1 (stereo not drawn) , growth observed: 102

molecule "O=C1C=C(O)C(=O)C=C1O" , growth observed: 103

molecule "CCCCCCCCCCCCCC(=O)Oc1ccc[nH]c1=O" , growth observed: 94.4

molecule "COc1ccc(-c2cc3c(nn2)-c2ccccc2C3=O)cc1" , growth observed: 89.7

molecule "N#CC(=Nc1cccc(F)c1)C1=C(O)c2ccccc2C1=O" , growth observed: 89.2

molecule "CN(C)CCN(C)CC(C)(C)C(=O)/C=C/c1ccc(Cl)cc1" , growth observed: -34.5

molecule "Nc1ccc(N=Nc2ccc(O)cc2)c(N)n1" , growth observed: 57.2

molecule "COc1cccc(O)c1O" , growth observed: 82.3

###

System: UACC-62 melanoma
Test: NCI-60 one-dose screen, 48 h (100 = growth as untreated, 0 = no growth, -100 = all killed)
Settings: 10 µM unless noted
Protocol: Growth inhibition of the UACC-62 human tumor cell line is measured as a screen for anti-cancer activity. Cells are grown in 96 well plates and exposed to the test compound for 48 hours. Compounds are tested at a single concentration, which is 10^-5 M for most compounds. The reported endpoint is percent growth (GI% or GIPRCNT), where numbers from 0 - 100% represent growth inhibition, and numbers from -100% - 0 represent cell death. For example, a value of 40 represents 60% growth inhibition. […]
The panel holds about 83,000 compounds, 20% with a hit somewhere; the sample as a whole holds those more often.
Field: growth. Provide a value for each of the molecules that follow.
Supply the numeric figure in %, leaving out any unit text.

molecule "CN(C)c1ccc(C(c2ccc(O)cc2)c2ccc(N(C)C)cc2)cc1" , growth observed: 79.8

molecule "Cc1cc2nc(CC(=O)c3cccc([N+](=O)[O-])c3)c(=O)[nH]c2cc1C" , growth observed: 65

molecule "CC(C)(C)n1nc(C2CC2)c(Br)c1NC(=O)c1ccccc1F" , growth observed: 90.7

molecule "O=[N+]([O-])c1ccc(-c2noc(-c3cccs3)n2)cc1" , growth observed: 76.6

molecule CCC(C)(C)C1CCC(O)CC1 (configuration not stated) , growth observed: 98.2

molecule "Cc1cc(O)ccc1O" , growth observed: 80.8

molecule "Cc1c(O)cnc2nn(-c3ccccc3)c(=N)n12" , growth observed: 106

molecule "Cc1ccc(C(=O)N/N=C/c2ccc3c(c2)OCO3)cc1" , growth observed: 76.3

molecule "O=C(O)c1cc([N+](=O)[O-])ccc1Cl" , growth observed: 95.6

molecule COc1ccc(C(=O)C(Br)C(Br)C(=O)O)cc1 (configuration not stated) , growth observed: 98.4

molecule "Cc1ccc(C)n1-c1ccsc1C(=O)NNC(=O)CCl" , growth observed: 82.7

molecule CC1(C)/C(=C\CO)C2CCC1C2 (configuration not stated) , growth observed: 97.3

molecule "CC(=O)Nc1ccc(NC(C)=O)c2c1C(=O)c1ccccc1C2=O" , growth observed: 73.3

molecule "O=C(NCCNC(=O)c1ccc(Cl)cc1Cl)c1ccc(Cl)cc1Cl" , growth observed: 91.1

molecule "O=C(Nc1cc(-c2ccccc2)[nH]n1)c1ccc(Cl)cc1" , growth observed: 79.7

molecule "Oc1ccc(Cc2ccccc2)c2cccnc12" , growth observed: -14

molecule "O=C(O)c1ccc(S(=O)(=O)O)cc1" , growth observed: 102

molecule "C=C[Si](OC(C)=O)(OC(C)=O)OC(C)=O" , growth observed: 116

molecule "C#Cc1cccc(NC(=O)c2ccc(Cl)cc2Cl)c1" , growth observed: 87.9

molecule "O=[N+]([O-])c1ccc(N=Nc2ccccc2)cc1" , growth observed: 91.4

molecule "CNS(=O)(=O)c1ccc(Cl)c(Cl)c1" , growth observed: 86.6

molecule "O=C(O)CSCSCC(=O)O" , growth observed: 100

molecule "NC(N)=Nc1cc2ccccc2c2ccccc12" , growth observed: 75

molecule "O=C(O)/C=C/c1ccc2c(c1)CCC2" , growth observed: 103

molecule "COc1ccc(NC(=O)CCl)cc1" , growth observed: 83.1

molecule "COC(=O)c1ccc(NC(=O)CCl)cc1" , growth observed: 72.2

molecule "CCc1nn(Cc2ccccc2)c2nc(C)c(CCc3ccccc3)c(Cl)c12" , growth observed: 84.5

###

Field: growth. Provide a value for each of the molecules that follow.
Tested on: SK-MEL-28 melanoma
Assay: NCI-60 one-dose screen, 48 h (100 = growth as untreated, 0 = no growth, -100 = all killed)
Details: 10 µM
About 83,000 compounds went through this panel and 20% of them were active in at least one assay; those are over-represented in the sample as a whole.
Supply the numeric figure in %, leaving out any unit text.

Reported SK-MEL-28 melanoma growth for item "CCOC(=O)C(=O)C=P(c1ccccc1)(c1ccccc1)c1ccccc1" was 110

Reported SK-MEL-28 melanoma growth for item "COCCOCCCl" was 114

Reported SK-MEL-28 melanoma growth for item "COc1ccccc1N=Nc1c(O)ccc2cc(S(=O)(=O)O)ccc12" was 111

Reported SK-MEL-28 melanoma growth for item "Nc1ncnc2[nH]ncc12" was 28.5

Reported SK-MEL-28 melanoma growth for item "CC(C)=NNC(N)=S" was 94.1

Reported SK-MEL-28 melanoma growth for item "CC(=O)Nc1c(C)cc(C)cc1C" was 112

Reported SK-MEL-28 melanoma growth for item "Nc1ccc(C(=O)c2ccc(N)c(Br)c2)cc1Br" was 45

Reported SK-MEL-28 melanoma growth for item "Cc1cccc(CO)c1" was 109

Reported SK-MEL-28 melanoma growth for item "O=C(O)c1cccc([N+](=O)[O-])c1" was 112

Reported SK-MEL-28 melanoma growth for item "CCOC(=O)Nc1cc2c(c(N)n1)N=C(c1ccccc1)CO2" was 47.6

Reported SK-MEL-28 melanoma growth for item O=P(O)(O)OCC(O)CO (centres undefined) was 98.2

Reported SK-MEL-28 melanoma growth for item "COC(=O)Nc1nc2ccc(C(=O)c3ccc(F)cc3)cc2[nH]1" was 54.2

Reported SK-MEL-28 melanoma growth for item "O=C(O)c1ccccc1NCc1ccco1" was 111

Reported SK-MEL-28 melanoma growth for item "CN(C)c1ccc2nc3ccc(=N)cc-3sc2c1" was 82.9

###

Tested on: OVCAR-5 ovarian
Assay: NCI-60 one-dose screen, 48 h (100 = growth as untreated, 0 = no growth, -100 = all killed)
Settings: 10 µM
The panel holds about 83,000 compounds, 20% with a hit somewhere; the sample as a whole holds those more often.
Field: growth. Provide a value for each of the compounds that follow.
Supply the numeric figure in %, leaving out any unit text.

compound "Nc1ccc(C(=O)c2ccc(N)c(Br)c2)cc1Br" , growth observed: 40

compound "c1cc2cccc3c4cccc5cccc(c(c1)c23)c54" , growth observed: 106

compound OCC(O)C(O)C(O)C(O)/C=N/O (centres undefined) , growth observed: 109

compound "C[N+](C)=c1ccc2nc3c(cc(Nc4ccccc4)c4ccccc43)oc-2c1" , growth observed: 80.7

compound "CNS(=O)(=O)c1ccc(Cl)c(Cl)c1" , growth observed: 98.5

compound CCN(CC)CCCC(C)Nc1ccnc(/C=C/c2ccc(Cl)cc2)c1 (centres undefined) , growth observed: 47.1

compound "CC(=O)C1CCCCC1" , growth observed: 107

compound "CC(C)(N)COS(=O)(=O)O" , growth observed: 107

compound "CNC(=S)NC(C)(C)C" , growth observed: 121

compound "CCOC(=O)/C(=C/c1ccc(OC)cc1)N(CC)CC" , growth observed: 113

compound "CC(=O)Nc1ccc(NC(C)=O)c2c1C(=O)c1ccccc1C2=O" , growth observed: 88.4

compound "C=CCNc1nnc(C)s1" , growth observed: 96

compound "CNc1nc(NC)c2cn[nH]c2n1" , growth observed: 106

compound "CCCCNC(=O)C(=O)NCCCC" , growth observed: 113
